Molecular target: T1, citrullinated histone 2A-derived peptide (SEQ ID NO: 18), C-terminal biotin (human)
T1 construct: Captured by its biotin on NeutrAvidin plates (ELISA) or streptavidin biosensors (Octet); also called histone-derived peptide; citrullinated H2A-derived peptide
T1 peptide: SG[Cit]GKQGGKARA-biotin
Assay: Octet RED96 off-rate screen, biotinylated peptide on streptavidin biosensors, antibody 72 nM, 30 C
Square brackets hold non-standard residues; d marks the D form. Ends that are not written are not given here. Cit = NC(=O)NCCC[C@H](N)C(=O)O
Recorded metric: binding result

>  <Binder>
hMQ22.101j/LC41 (antibody, V domains shown, also called isomerization mutant; heavy chain hVH22.101j with light chain hVL22.101LC41) VH: QVQLVQSGAEVKKPGASVKVSCKASGYTFTNYGMHWVRQAPGQGLEWMGWINTYSGEATYAQKFQGRVTMTRDTSISTAYMELSRLRSDDTAVYYCLRGYTYQSFDEGGDYWGQGTLVTVSS VL: DVVMTQSPLSLPVTLGQPASISCRSSQSLLDADGKTYLNWFQQRPGQSPRRLIYLVSKLDSGVPDRFSGSGSGTDFTLKISRVEAEDVGVYYCWQGTHFPYTFGQGTKLEIK

>  <Result>
binds

$$$$
>  <Binder>
hMQ22.101j/LC21 (antibody, V domains shown, also called isomerization mutant; heavy chain hVH22.101j with light chain hVL22.101LC21) VH: QVQLVQSGAEVKKPGASVKVSCKASGYTFTNYGMHWVRQAPGQGLEWMGWINTYSGEATYAQKFQGRVTMTRDTSISTAYMELSRLRSDDTAVYYCLRGYTYQSFDEGGDYWGQGTLVTVSS VL: DVVMTQSPLSLPVTLGQPASISCRSSQSLLDSDAKTYLNWFQQRPGQSPRRLIYLVSKLDSGVPDRFSGSGSGTDFTLKISRVEAEDVGVYYCWQGTHFPYTFGQGTKLEIK

>  <Result>
binds

$$$$
>  <Binder>
hMQ22.101j/LC42 (antibody, V domains shown, also called isomerization mutant; heavy chain hVH22.101j with light chain hVL22.101LC42) VH: QVQLVQSGAEVKKPGASVKVSCKASGYTFTNYGMHWVRQAPGQGLEWMGWINTYSGEATYAQKFQGRVTMTRDTSISTAYMELSRLRSDDTAVYYCLRGYTYQSFDEGGDYWGQGTLVTVSS VL: DVVMTQSPLSLPVTLGQPASISCRSSQSLLDNDGKTYLNWFQQRPGQSPRRLIYLVSKLDSGVPDRFSGSGSGTDFTLKISRVEAEDVGVYYCWQGTHFPYTFGQGTKLEIK

>  <Result>
binds

$$$$
